Source of measurements: patent US20250289905A1

# Tested target: T1, human WARS1 recombinant protein (human, UniProt P23381 2-471, limits assumed)
# T1 construct: Recombinant protein, detected with an anti-His tag antibody; In the western blot also secreted WARS1 from THP-1 supernatant and human serum; also called human-derived WARS1 recombinant protein
# T1 sequence: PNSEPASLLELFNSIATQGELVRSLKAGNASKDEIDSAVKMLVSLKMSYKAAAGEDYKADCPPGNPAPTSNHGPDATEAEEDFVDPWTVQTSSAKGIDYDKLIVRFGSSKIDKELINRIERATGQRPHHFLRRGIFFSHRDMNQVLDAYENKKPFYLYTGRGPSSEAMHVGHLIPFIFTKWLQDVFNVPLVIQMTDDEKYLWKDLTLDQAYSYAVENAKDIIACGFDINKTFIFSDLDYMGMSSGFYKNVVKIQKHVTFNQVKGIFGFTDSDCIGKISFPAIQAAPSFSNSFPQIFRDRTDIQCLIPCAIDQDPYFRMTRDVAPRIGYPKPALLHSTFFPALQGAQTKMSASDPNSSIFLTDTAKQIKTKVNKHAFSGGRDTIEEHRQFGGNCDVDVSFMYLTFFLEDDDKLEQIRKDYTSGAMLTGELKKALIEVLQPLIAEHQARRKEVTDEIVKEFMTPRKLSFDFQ
# Method notes: western blot; recombinant protein, THP-1 culture supernatant, human serum

| Binder | binding result |
| --- | --- |
| SH/IL (antibody, V domains shown, L-CDR2 variant of GKB101; also called SH/IL antibody) VH: EVQLLESGGGLVQPGGSLRLSCAASGFTFSSYDMSWVRQAPGKGLEWVSAISSGGSSIYYADSVKGRFTISRDNSKNTLYLQMNSLRAEDTAVYYCARDVAWDMLGDFDYWGQGTLVTVSS VL: QSVLTQPPSASGTPGQRVTISCTGSSSNIGSNYVYWYQQLPGTAPKLLIYANILRPSGVPDRFSGSKSGTSASLAISGLRSEDEADYYCGAWDDSLSAYVFGGGTKLTVLT | binds |
| H54I (antibody, V domains shown, L-CDR2 variant of GKB101; also called H54I antibody) VH: EVQLLESGGGLVQPGGSLRLSCAASGFTFSSYDMSWVRQAPGKGLEWVSAISSGGSSIYYADSVKGRFTISRDNSKNTLYLQMNSLRAEDTAVYYCARDVAWDMLGDFDYWGQGTLVTVSS VL: QSVLTQPPSASGTPGQRVTISCTGSSSNIGSNYVYWYQQLPGTAPKLLIYANSIRPSGVPDRFSGSKSGTSASLAISGLRSEDEADYYCGAWDDSLSAYVFGGGTKLTVLT | binds |
| SH/LL (antibody, V domains shown, L-CDR2 variant of GKB101; also called SH/LL antibody) VH: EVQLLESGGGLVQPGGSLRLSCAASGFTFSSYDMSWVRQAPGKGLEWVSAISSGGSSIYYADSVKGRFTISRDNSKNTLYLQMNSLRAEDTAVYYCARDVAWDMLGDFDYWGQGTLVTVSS VL: QSVLTQPPSASGTPGQRVTISCTGSSSNIGSNYVYWYQQLPGTAPKLLIYANLLRPSGVPDRFSGSKSGTSASLAISGLRSEDEADYYCGAWDDSLSAYVFGGGTKLTVLT | binds |
